Biological target: T1, human TREM2 (human) (UniProt Q9NZC2)
T1 sequence (looked up): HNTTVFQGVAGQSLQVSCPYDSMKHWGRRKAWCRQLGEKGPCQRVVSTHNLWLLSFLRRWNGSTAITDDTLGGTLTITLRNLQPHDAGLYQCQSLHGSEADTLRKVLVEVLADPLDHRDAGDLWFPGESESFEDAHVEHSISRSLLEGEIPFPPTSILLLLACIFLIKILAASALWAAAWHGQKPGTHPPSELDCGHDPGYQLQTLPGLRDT
Experiment: 2nd screen, 100 nM Ab
READOUT NAME: Binding Signal (fold over 6E7 parental antibody)

BINDER: 6E7 variant V54 (antibody, V domains shown) VH: EVQLVQSGAEVKKPGESLKISCKGSGYSFTSQWIAWVRQMPGKGLEWMGIIYPGDSDTRYSPSFQGQVTISADKSISTAYLQWSSLKASDTAMYFCARQRTFYYDSSDYFDYWGQGTLVTVSS VL: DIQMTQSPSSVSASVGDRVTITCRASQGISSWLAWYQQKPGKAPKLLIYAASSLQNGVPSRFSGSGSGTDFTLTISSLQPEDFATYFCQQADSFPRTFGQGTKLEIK
RESULT: 0.54 fold

Which value of Binding Signal (fold over 6E7 parental antibody) has been reported for 6E7 variant V90 (antibody, V domains shown) VH: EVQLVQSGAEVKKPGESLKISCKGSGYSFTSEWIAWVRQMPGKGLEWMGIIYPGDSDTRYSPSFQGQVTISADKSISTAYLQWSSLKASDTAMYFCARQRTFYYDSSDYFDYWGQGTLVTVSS VL: DIQMTQSPSSVSASVGDRVTITCRASQGISRWLAWYQQKPGKAPKLLIYAASSLQNGVPSRFSGSGSGTDFTLTISSLQPEDFATYFCQQADSFPRTFGQGTKLEIK in the records?
0.36 fold
